Below, each of the compounds is paired with its reported pEC50 value.
target: human mAChR M1 (Homo sapiens); construct: host or cells: CHO-K1 cells (ATCC), stably transfected using Lipofectamine2000; experiment: mAChR M1 cell-based functional assay (calcium mobilization), agonist activity upon compound addition; conditions: CHO-K1 cells expressing hM1; compound alone, before acetylcholine addition
pEC50: −log10 of the molar value.

Solved cases (6 shown):
compound="Cn1cc(-c2ccc(Cn3cc(C(=O)N[C@H]4CCCCC[C@@H]4O)c4ncccc4c3=O)c(F)c2)cn1 [Compound A24]" readout_name=pEC50 value_measured=5.21
compound="Cc1cccc(-c2ccc(Cn3cc(C(=O)N[C@H]4CCOC[C@@H]4O)c4ncccc4c3=O)c(F)c2)c1 [Compound A29]" readout_name=pEC50 value_measured="< 5.00"
compound="Cn1cc(-c2ccc(Cn3cc(C(=O)N[C@H]4CCCC[C@@H]4O)c4ncccc4c3=O)cc2)cn1 [Compound A86]" readout_name=pEC50 value_measured="< 5.00"
compound="Cn1cc(-c2ccc(Cn3cc(C(=O)N[C@@H]4CC[C@H]4O)c4ncccc4c3=O)c(F)c2)cn1 [Compound A9]" readout_name=pEC50 value_measured="< 5.00"
compound="Cn1cc(-c2ccc(Cn3cc(C(=O)N[C@H]4CCCC[C@@H]4O)c4nccnc4c3=O)c(F)c2)cn1 [Compound A54]" readout_name=pEC50 value_measured="< 5.00"
compound="Cn1cc2c(-c3cc(F)c(Cn4cc(C(=O)N[C@H]5CCCCC[C@@H]5O)c5occc5c4=O)c(F)c3)cccc2n1 [Compound D22]" readout_name=pEC50 value_measured="< 5.00"

Below: the item to evaluate.
What value of measured pEC50 is listed for Cc1cncc(-c2cc(F)c(Cn3cc(C(=O)N[C@H]4CCOC[C@@H]4O)c4ncccc4c3=O)c(F)c2)c1 [Compound A33] ?
5.49

###

biological target: human mAChR M1 (Homo sapiens, UniProt P11229); construct: host or cells: CHO-K1 cells (ATCC), stably transfected using Lipofectamine2000; experiment: mAChR M1 cell-based functional assay (calcium mobilization), PAM activity: increase in the EC20 acetylcholine response; conditions: CHO-K1 cells expressing hM1; potentiation of EC20 acetylcholine response
Sequence (P11229 whole entry): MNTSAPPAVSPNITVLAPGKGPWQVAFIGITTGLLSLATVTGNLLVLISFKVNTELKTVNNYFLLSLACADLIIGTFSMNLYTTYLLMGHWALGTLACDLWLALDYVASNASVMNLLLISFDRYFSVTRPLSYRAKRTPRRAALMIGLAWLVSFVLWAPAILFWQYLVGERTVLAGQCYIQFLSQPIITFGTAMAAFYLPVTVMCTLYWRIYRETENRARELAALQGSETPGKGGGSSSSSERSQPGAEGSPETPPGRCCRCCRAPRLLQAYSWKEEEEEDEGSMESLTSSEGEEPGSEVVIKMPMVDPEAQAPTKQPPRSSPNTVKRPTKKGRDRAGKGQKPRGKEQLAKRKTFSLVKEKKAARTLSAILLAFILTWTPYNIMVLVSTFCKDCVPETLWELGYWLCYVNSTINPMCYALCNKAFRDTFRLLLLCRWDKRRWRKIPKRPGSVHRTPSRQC
Readout name: Emax (%)

These solved cases illustrate the format of a correct answer.
compound="Cc1cn2c(=O)n(Cc3c(F)cc(-c4cccc5nn(C)cc45)cc3F)cc(C(=O)N[C@H]3CCOC[C@@H]3O)c2n1 [Compound B29]" readout_name=Emax value_measured=40
compound="Cn1cc(-c2ccc(Cn3cc(C(=O)N[C@H]4CCCCC[C@@H]4O)c4ncccc4c3=O)c(F)c2)cn1 [Compound A24]" readout_name=Emax value_measured=69
compound="Cn1cc(-c2ccc(Cn3cc(C(=O)NC4CC5(COC5)C4)c4ncccc4c3=O)c(F)c2)cn1 [Compound A11]" readout_name=Emax value_measured=58
compound="Cn1ccc(-c2ccc(Cn3cc(C(=O)N[C@H]4CCOC[C@@H]4O)c4occc4c3=O)c(F)c2)n1 [Compound D6]" readout_name=Emax value_measured=68
compound="Cn1cc(-c2ccc(Cn3cc(C(=O)N[C@H]4CCOC[C@@H]4O)c4ncncc4c3=O)c(F)c2)cn1 [Compound A90]" readout_name=Emax value_measured=47

I: Cn1cc(-c2ccc(Cn3cc(C(=O)N[C@H]4CCOC[C@@H]4O)c4occc4c3=O)c(F)c2)cn1 [Compound D12]
II: Cn1ccc(-c2ccc(Cn3cc(C(=O)N[C@@H]4CC[C@H]4O)c4ncccc4c3=O)c(F)c2)n1 [Compound A4]
Which shows the larger Emax value: I or II ? Respond with the label that goes with your answer.
I

P: Cc1cn2c(=O)n(Cc3ccc(-c4cnn(C)c4)cc3F)cc(C(=O)N[C@H]3CCOC[C@@H]3O)c2n1 [Compound B23]
Q: Cn1cc(-c2ccc(Cn3cc(C(=O)NC4CCOCC4)c4ncccc4c3=O)c(F)c2)cn1 [Compound A10]
Of the two listed items, P and Q , which carries the larger Emax figure? Answer format: the label of the selected item.
Q
(Q: 59%, P: 39%)
